target-system: human recombinant PDE10A2 (Homo sapiens, UniProt Q9Y233)
Construct: These compounds were tested against recombinant human full-length isoenzyme PDE10A
Sequence (Q9Y233 267-1055): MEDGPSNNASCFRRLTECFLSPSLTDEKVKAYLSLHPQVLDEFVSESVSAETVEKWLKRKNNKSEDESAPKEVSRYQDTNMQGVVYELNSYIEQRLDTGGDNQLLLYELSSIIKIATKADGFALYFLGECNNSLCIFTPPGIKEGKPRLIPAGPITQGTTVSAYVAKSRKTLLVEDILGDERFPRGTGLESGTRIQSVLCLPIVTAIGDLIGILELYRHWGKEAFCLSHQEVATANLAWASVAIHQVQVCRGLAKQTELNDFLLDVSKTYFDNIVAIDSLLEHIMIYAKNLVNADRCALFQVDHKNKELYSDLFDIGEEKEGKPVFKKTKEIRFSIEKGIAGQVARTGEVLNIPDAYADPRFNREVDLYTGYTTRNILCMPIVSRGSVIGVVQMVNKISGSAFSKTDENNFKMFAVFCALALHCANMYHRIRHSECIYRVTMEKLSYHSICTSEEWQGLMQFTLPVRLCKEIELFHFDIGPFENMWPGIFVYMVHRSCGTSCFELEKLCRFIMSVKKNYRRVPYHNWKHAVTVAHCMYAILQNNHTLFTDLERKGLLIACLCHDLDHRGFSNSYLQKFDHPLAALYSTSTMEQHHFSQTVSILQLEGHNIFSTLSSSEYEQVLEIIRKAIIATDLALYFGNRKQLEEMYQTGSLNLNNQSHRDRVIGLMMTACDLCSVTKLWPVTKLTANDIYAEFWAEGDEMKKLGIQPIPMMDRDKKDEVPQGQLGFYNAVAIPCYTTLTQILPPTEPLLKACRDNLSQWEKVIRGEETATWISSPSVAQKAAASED
assay: Radiometric phosphodiesterase inhibition assay (SPA, [3H]cAMP)
study-conditions: recombinant human full-length PDE10A
measured-property: IC50 (µM)

Completed entries (count: 5):
Ask | Which IC50 is listed for `CC(=O)C1=C(c2c[nH]c3ccccc23)C(=O)NC1=O` ?
Reply | 10.2

Ask | Which IC50 value belongs to `CC(=O)C1=C(c2ccc(C#N)cc2)C(=O)NC1=O` ?
Reply | 4.6

Ask | Using the record for `CC(=O)C1=C(c2cn(C)c3ccccc23)C(=O)NC1=O` , report its IC50.
Reply | 8.2

Ask | GET /values?readout=IC50&item= `COc1ccc(-c2n/c(=N/Cc3cccnc3)sn2-c2ccccc2)cc1`
Reply | 1.8

Ask | Would you mind telling me what IC50 value was observed for `Cn1cc(C2=C(C(=O)CBr)C(=O)NC2=O)c2ccccc21` ?
Reply | 2.9

(a) CC(=O)C1=C(c2cn(C)c3ncccc23)C(=O)NC1=O
(b) O=C(CBr)C1=C(c2c[nH]c3ccccc23)C(=O)NC1=O
Ask | Of a and b , which carries the smaller reported IC50 figure? Kindly state the label of the option you pick.
Reply | b
(b: 2.4 µM, a: 6.5 µM)
